B1: CPEB3 Ribozyme (parent)
chain: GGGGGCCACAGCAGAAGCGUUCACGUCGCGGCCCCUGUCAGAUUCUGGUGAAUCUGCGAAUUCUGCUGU

Variants of: B1
ASSAY_COMMENT: self-cleavage, relative activity (ratio to wild type); higher = more cleavage; co-transcriptional
Catalogue of variants with associated self-cleavage
EXPERIMENTAL_ENDPOINT: self-cleavage

MUTANT_LABEL | EXPERIMENTAL_ENDPOINT | VAL
G11C G37A | self-cleavage | 0.217
C57U C66A | self-cleavage | 0.316
G5C U36G | self-cleavage | 0.458
G41C U62C | self-cleavage | 0.365
A16G G31A | self-cleavage | 0.527
C35U U38G | self-cleavage | 0.184
G30A U55C | self-cleavage | 0.519
G3A U69G | self-cleavage | 0.793
G17U G50C | self-cleavage | 0.386
G3U U38C | self-cleavage | 0.0341
C29G U43G | self-cleavage | 0.393
C24U C32A | self-cleavage | 0.414
C54G A59C | self-cleavage | 0.478
C7G U64G | self-cleavage | 0.232
C24G C35G | self-cleavage | 0.116
A52G U62G | self-cleavage | 0.963
U61C U67A | self-cleavage | 0.741
G1U C35U | self-cleavage | 0.113
G4C U61G | self-cleavage | 0.178
G4C G25A | self-cleavage | 0.0767
C29U A59C | self-cleavage | 0.237
C63A U67G | self-cleavage | 0.758
G48A U61G | self-cleavage | 0.919
G31A U67A | self-cleavage | 0.951
U20A G68A | self-cleavage | 0.196
C45U U55C | self-cleavage | 0.755
A23U C33G | self-cleavage | 0.773
G4A U49C | self-cleavage | 0.916
G2A C63G | self-cleavage | 0.0931
U38G U62C | self-cleavage | 0.261
U61G G65A | self-cleavage | 0.672
G1C G17U | self-cleavage | 0.155
C29U C32U | self-cleavage | 0.645
G37C | self-cleavage | 0.241
A23U A40U | self-cleavage | 0.924
G4A C57A | self-cleavage | 0.245
U46C G50A | self-cleavage | 0.974
G30U U36C | self-cleavage | 0.179
C6A C29A | self-cleavage | 0.213
A59U A60C | self-cleavage | 0.343
G14A G19A | self-cleavage | 0.16
G2C A16C | self-cleavage | 0.0354
G31U C63U | self-cleavage | 0.602
A16G U46C | self-cleavage | 0.728
G2A G11A | self-cleavage | 0.101
U46C C63G | self-cleavage | 0.796

Data provenance: the RNAGym collection of RNA variant scans (doi:10.7554/elife.80360)
